Measured values drawn from ChEMBL document CHEMBL3885861 for this set.

Some molecules, each annotated with its measured Neu.
Species on record: Rattus norvegicus
Test: Open TG-GATES - Regimen: Single
Format: toxicity, organism-based, Sprague-Dawley
Design: regimen Single, gender Male, age 6 weeks
Conditions: in vivo, po, 0 mg/kg, 24 h, tissue Blood, route gavage, dose level Control
Field format: number, assumed %, no unit text.

These recorded examples may help you get a feel for the data.
OCCOCCN1CCN(C(c2ccccc2)c2ccc(Cl)cc2)CC1 (stereo not given) [HYDROXYZINE]; 15.8
O=NN1CCOCC1; 16.4
ClC(Cl)(Cl)Cl [CARBON TETRACHLORIDE]; 14.2
CN(C)C(=N)N=C(N)N; 17.8
CC[C@H]1[C@@H]2C[C@H]3[C@@H]4N(C)c5ccccc5[C@]45C[C@@H]([C@@H]2[C@H]5O)N3[C@@H]1O; 15.6
O=NN(CCCl)C(=O)NC1CCCCC1; 12.4
CCc1oc2ccccc2c1C(=O)c1cc(Br)c(O)c(Br)c1; 17.4
CCC1(c2ccccc2)C(=O)NC(=O)NC1=O; 18

Inquiry: Return reported Neu; argument: CN(C)CCC=C1c2ccccc2COc2ccccc21 [DOXEPIN]
Reply text: 19

Inquiry: Param item: CC1=C(CC(=O)O)c2cc(F)ccc2/C1=C\c1ccc([S+](C)[O-])cc1 (stereo not given)
Reply text: 18.2

* * *

Species: Rattus norvegicus
Test: Open TG-GATES - Regimen: Single
Format: toxicity, organism-based, Sprague-Dawley
Parameters: regimen Single, gender Male, age 6 weeks
Settings: in vivo, po, 0 mg/kg, 9 h, tissue Blood, route gavage, dose level Control
Label rule, in plain words: RBC of 600 x10_4/ul and up is satisfied, under 600 x10_4/ul is not satisfied.

CCC1(c2ccccc2)C(=O)NC(=O)NC1=O; satisfied
OCCOCCN1CCN(C(c2ccccc2)c2ccc(Cl)cc2)CC1 (stereo unspecified) [HYDROXYZINE]; satisfied

Inquiry: Reported RBC reaches at least 600 x10_4/ul for "CN(C)C(=N)N=C(N)N" ?
Reply text: not satisfied

Inquiry: Param item: CC1=C(CC(=O)O)c2cc(F)ccc2/C1=C\c1ccc([S+](C)[O-])cc1 (stereo unspecified)
Reply text: satisfied

* * *

Some compounds, each annotated with its measured GLC.
Organism: Rattus norvegicus
Assay: Open TG-GATES - Regimen: Single
Type: toxicity, organism-based, Sprague-Dawley
Set-up: regimen Single, gender Male, age 6 weeks
Conditions: in vivo, po, 0 mg/kg, 9 h, tissue Plasma, route gavage, dose level Control
Field format: number, assumed mg/dL, no unit text.

These recorded examples may help you get a feel for the data.
O=NN(CCCl)C(=O)NC1CCCCC1 [LOMUSTINE]; 193.6
OCCOCCN1CCN(C(c2ccccc2)c2ccc(Cl)cc2)CC1 (centres undefined) [HYDROXYZINE]; 176.2
ClC(Cl)(Cl)Cl [CARBON TETRACHLORIDE]; 207.2
CC[C@H]1[C@@H]2C[C@H]3[C@@H]4N(C)c5ccccc5[C@]45C[C@@H]([C@@H]2[C@H]5O)N3[C@@H]1O [AJMALINE]; 190.4
CN(C)CCC=C1c2ccccc2COc2ccccc21 [DOXEPIN]; 159.2

Inquiry: Return reported GLC; argument: CC1=C(CC(=O)O)c2cc(F)ccc2/C1=C\c1ccc([S+](C)[O-])cc1 (centres undefined)
Reply text: 182

Inquiry: Param item: CN(C)C(=N)N=C(N)N [METFORMIN]
Reply text: 164.8

Inquiry: Param item: CCc1oc2ccccc2c1C(=O)c1cc(Br)c(O)c(Br)c1 [BENZBROMARONE]
Reply text: 181.2

Inquiry: Param item: CCC1(c2ccccc2)C(=O)NC(=O)NC1=O [PHENOBARBITAL]
Reply text: 202

* * *

Some compounds, each annotated with its measured PT.
Species: Rattus norvegicus
Test: Open TG-GATES - Regimen: Single
Type: toxicity, organism-based, Sprague-Dawley
Design: regimen Single, gender Male, age 6 weeks
Settings: in vivo, po, 0 mg/kg, 24 h, tissue Blood, route gavage, dose level Control
Field format: number, assumed s, no unit text.

O=NN(CCCl)C(=O)NC1CCCCC1; 11.9

Inquiry: Return reported PT; argument: "CN(C)C(=N)N=C(N)N"
Reply text: 12.5

Inquiry: Param item: "CCC1(c2ccccc2)C(=O)NC(=O)NC1=O"
Reply text: 11.7

Inquiry: Param item: OCCOCCN1CCN(C(c2ccccc2)c2ccc(Cl)cc2)CC1 (centres undefined) [HYDROXYZINE]
Reply text: 16

Inquiry: Param item: "CCc1oc2ccccc2c1C(=O)c1cc(Br)c(O)c(Br)c1"
Reply text: 11.9

* * *

Species: Rattus norvegicus
Test: Open TG-GATES - Regimen: Daily Repeat
Type: toxicity, organism-based, Sprague-Dawley
Design: regimen Daily Repeat, gender Male, age 6 weeks
Settings: in vivo, po, 0 mg/kg, […], tissue Plasma, route gavage, dose level Control, time 28 day
Some compounds, each annotated with its measured BUN.
Field format: number, assumed mg/dL, no unit text.

These recorded examples may help you get a feel for the data.
CN(C)C(=N)N=C(N)N; 16
CN(C)CCC=C1c2ccccc2COc2ccccc21 [DOXEPIN]; 17.2
O=NN(CCCl)C(=O)NC1CCCCC1; 19
CCCCc1oc2ccccc2c1C(=O)c1cc(I)c(OCCN(CC)CC)c(I)c1; 17.4
CC(C)N(CCC(C(N)=O)(c1ccccc1)c1ccccn1)C(C)C (stereo unspecified) [DISOPYRAMIDE]; 17.4

Now examine the next entry.
Inquiry: Return reported BUN; argument: CC1=C(CC(=O)O)c2cc(F)ccc2/C1=C\c1ccc([S+](C)[O-])cc1 (stereo unspecified)
Reply text: 16.8

* * *

Species: Rattus norvegicus
Test: Open TG-GATES - Regimen: Daily Repeat
Format: toxicity, organism-based, Sprague-Dawley
Parameters: regimen Daily Repeat, gender Male, age 6 weeks
Settings: in vivo, po, 0 mg/kg, […], tissue Blood, route gavage, dose level Control, time 14 day
REPORTED METRIC: MCHC (%)
Field format: number, assumed %, no unit text.

OCCOCCN1CCN(C(c2ccccc2)c2ccc(Cl)cc2)CC1 (stereo unspecified) [HYDROXYZINE]; 34
CC1=C(CC(=O)O)c2cc(F)ccc2/C1=C\c1ccc([S+](C)[O-])cc1 (stereo unspecified); 33.9
CCCCc1oc2ccccc2c1C(=O)c1cc(I)c(OCCN(CC)CC)c(I)c1 [AMIODARONE]; 34.8
CN(C)C(=N)N=C(N)N [METFORMIN]; 34.5
CC[C@H]1[C@@H]2C[C@H]3[C@@H]4N(C)c5ccccc5[C@]45C[C@@H]([C@@H]2[C@H]5O)N3[C@@H]1O [AJMALINE]; 32.9
O=NN(CCCl)C(=O)NC1CCCCC1 [LOMUSTINE]; 33.5

Inquiry: Return reported MCHC; argument: CN(C)CCC=C1c2ccccc2COc2ccccc21 [DOXEPIN]
Reply text: 34.8

Inquiry: Param item: CC(C)N(CCC(C(N)=O)(c1ccccc1)c1ccccn1)C(C)C (stereo unspecified) [DISOPYRAMIDE]
Reply text: 33

Inquiry: Param item: CCc1oc2ccccc2c1C(=O)c1cc(Br)c(O)c(Br)c1 [BENZBROMARONE]
Reply text: 33.6

Inquiry: Param item: ClC(Cl)(Cl)Cl [CARBON TETRACHLORIDE]
Reply text: 34

Inquiry: Param item: CCC1(c2ccccc2)C(=O)NC(=O)NC1=O [PHENOBARBITAL]
Reply text: 33.4

* * *

Some compounds, each annotated with its measured Hb.
Species on record: Rattus norvegicus
Assay: Open TG-GATES - Regimen: Daily Repeat
Format: toxicity, organism-based, Sprague-Dawley
Set-up: regimen Daily Repeat, gender Male, age 6 weeks
Conditions: in vivo, po, 0 mg/kg, […], tissue Blood, route gavage, dose level Control, time 7 day
Field format: number, assumed g/dL, no unit text.

These recorded examples may help you get a feel for the data.
CC[C@H]1[C@@H]2C[C@H]3[C@@H]4N(C)c5ccccc5[C@]45C[C@@H]([C@@H]2[C@H]5O)N3[C@@H]1O; 13
CCc1oc2ccccc2c1C(=O)c1cc(Br)c(O)c(Br)c1; 14.5
CCCCc1oc2ccccc2c1C(=O)c1cc(I)c(OCCN(CC)CC)c(I)c1; 13.6

Now examine the next entry.
Inquiry: Return reported Hb; argument: "O=NN(CCCl)C(=O)NC1CCCCC1"
Reply text: 13.4

* * *

Species on record: Rattus norvegicus
Assay: Open TG-GATES - Regimen: Daily Repeat
Format: toxicity, organism-based, Sprague-Dawley
Set-up: regimen Daily Repeat, gender Male, age 6 weeks
Settings: in vivo, po, 0 mg/kg, […], tissue Blood, route gavage, dose level Control, time 28 day
REPORTED METRIC: Eos (%)
Field format: number, assumed %, no unit text.

CCCCc1oc2ccccc2c1C(=O)c1cc(I)c(OCCN(CC)CC)c(I)c1; 1
CN(C)C(=N)N=C(N)N; 1.4
OCCOCCN1CCN(C(c2ccccc2)c2ccc(Cl)cc2)CC1 (stereo unspecified) [HYDROXYZINE]; 1.2
CC1=C(CC(=O)O)c2cc(F)ccc2/C1=C\c1ccc([S+](C)[O-])cc1 (stereo unspecified); 1.8
CC[C@H]1[C@@H]2C[C@H]3[C@@H]4N(C)c5ccccc5[C@]45C[C@@H]([C@@H]2[C@H]5O)N3[C@@H]1O; 1.2

Inquiry: Return reported Eos; argument: "CCc1oc2ccccc2c1C(=O)c1cc(Br)c(O)c(Br)c1"
Reply text: 1

Inquiry: Param item: "CCC1(c2ccccc2)C(=O)NC(=O)NC1=O"
Reply text: 0.8

Inquiry: Param item: ClC(Cl)(Cl)Cl [CARBON TETRACHLORIDE]
Reply text: 1

Inquiry: Param item: CN(C)CCC=C1c2ccccc2COc2ccccc21 [DOXEPIN]
Reply text: 1.2

Inquiry: Param item: CC(C)N(CCC(C(N)=O)(c1ccccc1)c1ccccn1)C(C)C (stereo unspecified) [DISOPYRAMIDE]
Reply text: 1

Inquiry: Param item: "O=NN(CCCl)C(=O)NC1CCCCC1"
Reply text: 1
